Quick list: GI50 per entry.
Test system: OVCAR-5
EXPERIMENT_DESCRIPTION: NCI tumour cell line growth inhibition, 48 h
The source made the active and inactive calls. Cut-off read from the data, not from the text of the source: active = GI50 up to about 1.1 µM and inactive = higher.
ENDPOINT_NAME: GI50

molecule=CN(C)C(=O)O/N=C1/C(=C2/C(=O)Nc3ccccc32)Nc2ccccc21 assay_target=OVCAR-5 endpoint_name=GI50 experimental_value="31 µM (inactive)"
molecule="COC(=O)C1=C(OC(=O)/C(=C/c2ccc(Cl)cc2)c2ccc(Cl)cc2)C(C(=O)OC)[C@]2(O)[C@@H](C(=O)OC)[C@H]1C[C@@H](c1ccccc1)[C@@H]2C(=O)OC (stereo partly specified)" assay_target=OVCAR-5 endpoint_name=GI50 experimental_value="> 100 µM (inactive)"
molecule="Nc1nc(Cl)c(N)c(NCC2(CO)CCC(CCc3ccccc3)C2)n1 (stereo unspecified)" assay_target=OVCAR-5 endpoint_name=GI50 experimental_value="20.9 µM (inactive)"
molecule=O=C1c2cc3c(cc2CC12Cc1cc4c(cc1C2=O)CCC4)CCC3 assay_target=OVCAR-5 endpoint_name=GI50 experimental_value="48.3 µM (inactive)"
molecule=CNC(=O)OCc1nccc2c(C)c3[nH]c4ccc(OC)cc4c3cc12 assay_target=OVCAR-5 endpoint_name=GI50 experimental_value="22 µM (inactive)"
molecule=c1c(N2CCOCC2)s[s+]c1N1CCOCC1 assay_target=OVCAR-5 endpoint_name=GI50 experimental_value="> 100 µM (inactive)"
molecule=Cc1ccc(N2C(=O)/C(=C3\Sc4c(nc(C)n(C)c4=O)N3c3ccccc3)SC2=S)cc1 assay_target=OVCAR-5 endpoint_name=GI50 experimental_value="> 100 µM (inactive)"
molecule=COc1cc(CCN(C)C)cc(OC)c1OC assay_target=OVCAR-5 endpoint_name=GI50 experimental_value="> 100 µM (inactive)"
molecule="CC(=O)CC1(CBr)Nc2ccc([N+](=O)[O-])cc2NC1=O (stereo unspecified)" assay_target=OVCAR-5 endpoint_name=GI50 experimental_value="> 100 µM (inactive)"
molecule="COC(=O)C(C(=O)C(=O)NC1Nc2ccc(C)cc2S1)c1nc2ccc(Cl)cc2nc1O (stereo unspecified)" assay_target=OVCAR-5 endpoint_name=GI50 experimental_value="> 100 µM (inactive)"
molecule=Cc1ccc2nc(N/N=C/c3ccc(C)s3)cc(C)c2c1 assay_target=OVCAR-5 endpoint_name=GI50 experimental_value="10.1 µM (inactive)"

* * *

System: Malme-3M
EXPERIMENT_DESCRIPTION: NCI tumour cell line growth inhibition, 48 h
The source made the active and inactive calls. Rule as the data show it: active = GI50 up to about 1.1 µM and inactive = higher.
Outcomes: active, inactive

compound=c1ccc2c(CN3CCN(Cc4c[nH]c5ccccc45)CC3)c[nH]c2c1 class_name=inactive
compound=O=C1NC(N2CCOCC2)=N/C1=C\c1ccccc1O class_name=inactive
compound=CC(=O)OCc1c2ccccc2c(C)c2c1cc(F)c1ccccc12 class_name=inactive
compound="CCOC(=O)CCC(=O)C1c2cccc(O)c2C(=O)c2c(O)cc(C)cc21 (stereo unspecified)" class_name=inactive
compound=CC(=O)N1N=C(N)CC1=O class_name=inactive
compound=CCN(CC)CCCNc1nncc2c(C)c3[nH]c4ccccc4c3cc12 class_name=active
compound=N=c1oc2cc(O)ccc2cc1C(=O)Nc1ccccn1 class_name=inactive
compound="CC1C2CC(CC(=O)N2)C1(C)C (stereo unspecified)" class_name=inactive
compound=CCN1C/C(=C\c2ccc(Cl)cc2)c2[nH]c(=O)c(C#N)c(-c3ccc(Cl)cc3)c2C1 class_name=inactive
compound=CC1(C)S[C@@H]2[C@H](NC(=O)CCC[C@@H](N)C(=O)O)C(=O)N2[C@H]1C(=O)O class_name=inactive
compound=Cc1ccc(/C=C/C(=O)c2ccc([N+](=O)[O-])cc2)cc1 class_name=inactive
compound=CCOC(=O)/C(=C\c1ccc(OCc2ccccc2)c(OC)c1)C(=O)c1ccccc1 class_name=inactive
compound="C/C=C1/C(=Cc2[nH]c(C=c3[nH]/c(=C/C4=NC(=O)C(CC)=C4C)c(C)c3CCC(=O)O)c(CCC(=O)O)c2C)NC(=O)C1C (stereo unspecified)" class_name=inactive
compound=O=C1N(CN2CCOCC2)CN(CN2CCOCC2)C(=O)N1Cc1ccccc1 class_name=inactive
compound=Cc1cc(S(=O)(=O)N=C2N(Cc3ccccc3)CCN2Cc2ccccc2)c(S)cc1Cl class_name=inactive
compound=O=C(N[C@H]1CC2(C=C(I)C(=O)C(I)=C2)OC1=O)OCc1ccccc1 class_name=inactive
compound="O=P(c1ccccc1)(c1ccccc1)C1CC=C(c2ccccc2)C2(CCCC2)C1 (stereo unspecified)" class_name=inactive
compound=CCOC(=O)C(=O)Nc1ccccc1C(C)C class_name=inactive
compound=CC1=NN(C(=O)c2ccc(Cl)cc2)C(=O)/C1=C/c1cccc([N+](=O)[O-])c1 class_name=inactive
compound=CC[C@]1(Cc2ccc(OC)c(OC)c2)C=[N+]([O-])O[C@H](OCc2ccccc2)[C@@H]1OC(C)=O class_name=inactive
compound=CC[C@H]1C=CCC[C@@]2(C[C@@H]3CC[C@@H]4[C@H](C(=O)OCCCCCCCCCCCCCCCC(=O)O)[C@]5(CCC[C@@H](C)O5)NC(=[N+]34)N2)O1 class_name=active
compound=COc1ccc(NC(=O)CSc2nnc(Cc3ccccc3)o2)cc1 class_name=inactive
compound=O=Cc1c2ccccc2n2ccc3c4ccccc4[nH]c3c12 class_name=inactive
compound=O=C(Cn1cc(F)c(=O)[nH]c1=O)C12CC3CC(CC(C3)C1)C2 class_name=inactive
compound="Oc1ccc(CCc2cc(O)cc(O)c2)cc1 [DIHYDRORESVERATROL]" class_name=inactive
compound="Nc1nc(N)c2c(n1)NC(c1ccccc1)CC(/C=C/c1ccc(Cl)cc1)=N2 (stereo unspecified)" class_name=inactive
compound="O=C(O)CCC1(c2ccccc2)NC(=O)NC1=O (stereo unspecified)" class_name=inactive
compound="COC(=O)C1(CCCCCBr)CCCCCCCCCCC1=O (stereo unspecified)" class_name=inactive
compound="COC(=O)/C(C#N)=C1\\NC(=O)CC(c2ccccc2)C1C#N (stereo unspecified)" class_name=inactive
compound=O=S1(=O)N2CN3CN(C2)CN1C3 class_name=inactive
compound=CCCCCCCCCCCCCCCCNc1ccc2c(c1)OCCOCCOCCOCCO2 class_name=inactive
compound=COc1cc(/C=C2\[C@@H]3NC(Cc4c(OC)c(C)c(OC)c(OC)c43)C(=O)N2Cc2ccccc2)c(OC)c(C)c1OC class_name=inactive
compound=Nn1c(Cc2ccc(Cl)cc2)n[nH]c1=O class_name=inactive
compound=COc1ccc(/C=N/Nc2nc3ccccc3c(=O)n2-c2ccccc2)cc1 class_name=inactive
compound=O=C1c2cc3c(cc2CC12Cc1cc4c(cc1C2=O)CCC4)CCC3 class_name=inactive
compound="COC(=O)[C@]1(C)CCCC2(C)C1CC[C@H]1C=C(C)[C@H]3CCC12C3 (stereo partly specified)" class_name=inactive
compound="COc1cc(C(=O)OC2CC34CCNC35CC(OC5(OC)C2O)c2cc3c(cc24)OCO3)ccc1O (stereo unspecified)" class_name=inactive
compound=CCOC(=O)c1c(Br)c(-c2ccc([N+](=O)[O-])cc2)c(Br)n1C class_name=inactive
compound="CCOC(=O)COc1ccccc1/C=C1\\CCC(CN(C)C)C1=O (stereo unspecified)" class_name=inactive
compound="O=C1CC(C(=O)N2CCCCC2)n2c(=O)n(-c3ccccc3)c(=O)n2C1 (stereo unspecified)" class_name=inactive
compound=O=C(Oc1c(Br)cc(Br)cc1C(=O)Oc1ccccc1)C(=O)Oc1c(Br)cc(Br)cc1C(=O)Oc1ccccc1 class_name=inactive

* * *

Test system: SF-539
EXPERIMENT_DESCRIPTION: NCI tumour cell line growth inhibition, 48 h
Active and inactive are the calls of the source. No stated cut-off is given here; in the data, active = GI50 up to about 1.1 µM and inactive = higher.
GI50 values by entry
ENDPOINT_NAME: GI50

molecule=CCCCCCC(=O)OC[n+]1ccc(-c2c(COC(=O)NC(C)C)c(COC(=O)NC(C)C)c3n2CCC3)cc1 endpoint_name=GI50 experimental_value="45.1 µM (inactive)"
molecule="COC1(OC)CCC2(C)OC(c3ccccc3)C1O2 (stereo not given)" endpoint_name=GI50 experimental_value="> 100 µM (inactive)"
molecule="COc1cc(C(=O)OC2CC34CCNC35CC(OC5(OC)C2O)c2cc3c(cc24)OCO3)ccc1O (stereo not given)" endpoint_name=GI50 experimental_value="> 100 µM (inactive)"
molecule=BrCc1ccc(CBr)c2c1-c1c(CBr)ccc3ccc(CBr)c-2c13 endpoint_name=GI50 experimental_value="56.9 µM (inactive)"
molecule=Cc1nc(-n2nc(-c3ccccc3)cc2-c2ccccc2)sc1C(=O)/C=C/c1ccc(Cl)c(Cl)c1 endpoint_name=GI50 experimental_value="18.3 µM (inactive)"
molecule="CC(C)=CCc1c(O)ccc2c1OC1c3ccc(O)c(CC=C(C)C)c3OCC21 (stereo not given)" endpoint_name=GI50 experimental_value="10.5 µM (inactive)"
molecule=CSc1nc(-c2cc3c(c(SC)n2)CCCCC3)cc2c1CCCCC2 endpoint_name=GI50 experimental_value="> 100 µM (inactive)"
molecule="CC(=O)c1cccc(NC(=O)/C(=N\\NC(=S)NN)C2C(=O)Nc3ccccc3[S+]2[O-])c1 (stereo not given)" endpoint_name=GI50 experimental_value="> 100 µM (inactive)"
molecule=O=c1ccc2ccccc2o1 endpoint_name=GI50 experimental_value="> 100 µM (inactive)"
molecule=CCN(CC)CCCNc1nncc2c(C)c3[nH]c4ccccc4c3cc12 endpoint_name=GI50 experimental_value="1.12 µM (inactive)"
